target: T1, human melanocortin-1 receptor (human, UniProt Q01726 1-317); test: competition with [125I]-NDP-alpha-MSH, CHO-K1 cell membranes
T1 construct: whole, on cells; Ki assays used cellular membranes of the CHO-K1 cells; cAMP assays used the whole cells; also called hMC1; hMC-R receptor subtype 1
T1 sequence (Q01726 whole entry): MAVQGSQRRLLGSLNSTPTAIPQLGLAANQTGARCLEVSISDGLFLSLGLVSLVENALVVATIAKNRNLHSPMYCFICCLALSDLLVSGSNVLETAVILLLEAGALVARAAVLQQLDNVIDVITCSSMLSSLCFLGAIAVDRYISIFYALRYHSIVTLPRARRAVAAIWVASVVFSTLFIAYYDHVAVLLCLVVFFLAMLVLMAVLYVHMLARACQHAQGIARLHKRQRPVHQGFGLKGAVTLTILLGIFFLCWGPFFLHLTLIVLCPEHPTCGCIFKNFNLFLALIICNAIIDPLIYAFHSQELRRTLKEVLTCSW
For each record, write down the corresponding pKi.
One number for each entry, as −log10 of the molar value.

Given EHXRWC (not fully specified; hydantoin ring from Gly 1, C(O) and the amino group of Cys 2; D-Phe 5; disulfide Cys 2-Cys 8 (cyclo); C-terminal amide) [cyclo[Hydantoin(C(O)-(Gly-Cys))-Glu-His-D-Phe-Arg-Trp-Cys]-NH2] , respond with its pKi.
7.81

Using the record for CEHXRWC (not fully specified; hydantoin ring from Gly 1, C(O) and the amino group of Gly 2; D-Phe 6; disulfide Cys 3-Cys 9 (cyclo); C-terminal amide, residue 6 here is D-Phe) [Hydantoin(C(O)-(Gly-Gly))-cyclo(Cys-Glu-His-D-Phe-Arg-Trp-Cys)-NH2] , state its measured pKi.
7.92

Each of the following entries comes with a recorded value; kindly state pKi for each.
1. CEHXRWC (not fully specified; hydantoin ring from Nle 1, C(O) and the amino group of Gly 2; Nle 1; D-Phe 6; disulfide Cys 3-Cys 9 (cyclo); C-terminal amide, residue 6 here is D-Phe; also called Compound F) [Hydantoin(C(O)-(Nle-Gly))-cyclo(Cys-Glu-His-D-Phe-Arg-Trp-Cys)-NH2]
2. CEHXRWC (not fully specified; hydantoin ring from Arg 1, C(O) and the amino group of Gly 2; D-Phe 6; disulfide Cys 3-Cys 9 (cyclo); C-terminal amide, also called Compound C) [Hydantoin(C(O)-(Arg-Gly))-cyclo(Cys-Glu-His-D-Phe-Arg-Trp-Cys)-NH2]
3. XHXRWC (hydantoin ring from Ile 1, C(O) and the amino group of Cys 2; D-Ala 3; D-Phe 5; disulfide Cys 2-Cys 8 (cyclo); C-terminal amide) [cyclo[Hydantoin(C(O)-(Ile-Cys))-D-Ala-His-D-Phe-Arg-Trp-Cys]-NH2]
4. CEHXRWC (hydantoin ring from Gly 1, C(O) and the amino group of Arg 2; D-Phe 6; disulfide Cys 3-Cys 9 (cyclo); C-terminal amide, residue 6 here is D-Phe; also called Compound E) [Hydantoin(C(O)-(Gly-Arg))-cyclo(Cys-Glu-His-D-Phe-Arg-Trp-Cys)-NH2]

1. 7.84
2. 8.07
3. 7.27
4. 8.25

These measurements were taken from patent US20210163536A1.
